Record set of Ki for target or system D(2) dopamine receptor (Homo sapiens, UniProt P14416).

# molecule, Ki
records = [
    ("CN[C@@H]1c2ccc3c(ccn3S(=O)(=O)c3ccccc3)c2[C@@H]1CCO", "> 10 µM"),
    ("O=S(=O)(c1ccccc1)n1ccc2cc3c(cc21)[C@H]1CCNCC[C@@H]31", "> 10 µM"),
    ("CN(C)[C@H]1c2cc3ccn(S(=O)(=O)c4ccccc4)c3cc2[C@H]1CCO (relative stereo)", "> 10 µM"),
    ("CNCC1Cc2ccc3c(ccn3S(=O)(=O)c3ccccc3)c21 (stereo not given)", "2 µM"),
    ("CN[C@H]1c2ccc3c(ccn3S(=O)(=O)c3ccccc3)c2[C@@H]1CCO (relative stereo)", "> 10 µM"),
]
